MEASURED ON: human 5-HT6 receptor (Homo sapiens (Human), UniProt P50406)
Sequence (P50406 whole entry): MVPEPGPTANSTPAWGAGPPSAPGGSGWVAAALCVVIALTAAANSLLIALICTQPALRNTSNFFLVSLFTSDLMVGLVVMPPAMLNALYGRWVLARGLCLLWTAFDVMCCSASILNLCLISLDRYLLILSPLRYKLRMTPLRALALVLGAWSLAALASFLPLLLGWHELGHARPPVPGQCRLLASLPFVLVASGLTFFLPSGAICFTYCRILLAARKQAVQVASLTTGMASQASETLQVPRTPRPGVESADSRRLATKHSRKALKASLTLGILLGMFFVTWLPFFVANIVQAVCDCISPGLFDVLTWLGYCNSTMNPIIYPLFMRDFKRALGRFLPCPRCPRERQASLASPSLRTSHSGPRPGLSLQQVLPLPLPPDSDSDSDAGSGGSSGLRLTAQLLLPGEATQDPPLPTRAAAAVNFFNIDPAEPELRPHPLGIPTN
PROCEDURE DETAILS: 5-HT6 radioligand binding assay (SPA format, [N-methyl-3H]-LSD)
CONDITION PARAMETERS: human 5-HT6 receptor membranes, 10 nM [N-methyl-3H]-LSD; Ki by Cheng-Prusoff; read-out: human 5HT6 Ki
// reported log10 Ki per item
Annotation: log10 of Ki, nM basis.

Solved cases below.
Cl.O=S(=O)(c1cccc(F)c1)c1ccc2oc3c(c2c1)C1CCC(C3)N1 (centres unmarked) [Example 57, hydrochloride]    2.12
O=S(=O)(c1cccc(CO)c1)c1cc(Cl)c2oc3c(c2c1)CNCC3 [Example 110]    0.64
Cc1cc(S(=O)(=O)c2ccccc2F)cc2c3c(oc12)CCNC3 [Example 194]    -0.41
O=S(=O)(c1ccc2c(c1)CCOC2)c1cc(Cl)c2oc3c(c2c1)CNCC3 [Example 106]    0.40
CC1(C)NCCc2oc3c(Cl)cc(S(=O)(=O)c4ccccc4)cc3c21.Cl [Example 84, hydrochloride]    1.43
O=S(=O)(c1cccc(C(F)(F)F)c1)c1cc(F)c2oc3c(c2c1)CNCC3 [Example 206]    0.77

Missing value: log10 Ki, human 5-HT6 receptor (Homo sapiens (Human), UniProt P50406), entry O=S(=O)(c1ccc(C(O)C(F)(F)F)cc1)c1cc(Cl)c2oc3c(c2c1)CNCC3 (centres unmarked) [Example 131] . Fill in?
0.88

And then COc1cc(S(=O)(=O)c2cccc([C@H](C)O)c2)cc2c3c(oc12)CCNC3 [Example 175] , what is it?
0.08

---

MEASURED ON: human 5-HT6 receptor (Homo sapiens (Human))
PROCEDURE DETAILS: 5-HT6 radioligand binding assay (SPA format, [N-methyl-3H]-LSD)
CONDITION PARAMETERS: human 5-HT6 receptor membranes, 10 nM [N-methyl-3H]-LSD; Ki by Cheng-Prusoff; read-out: human 5HT6 Ki
Criterion: Ki strictly under 2 nM. Met: Fulfilled. Not met: Not fulfilled.

// below: answered molecules
CC(=O)N1CCc2oc3c(Cl)cc(S(=O)(=O)c4cn(C)c5ccccc45)cc3c2C1 [Example 155]    Not fulfilled
CN(C)CC(=O)N1CCc2oc3c(Cl)cc(S(=O)(=O)c4ccccc4)cc3c2C1 [Example 145]    Not fulfilled
CC(O)c1ccc(S(=O)(=O)c2cc(Cl)c3oc4c(c3c2)CNCC4)cc1 (centres unmarked) [Example 137]    Not fulfilled
Cl.O=S(=O)(c1ccc(OC(F)(F)F)cc1)c1cc(Cl)c2oc3c(c2c1)CNCC3 [Example 112]    Not fulfilled
COc1cc(S(=O)(=O)c2ccc(C(C)O)cc2)cc2c3c(oc12)CCNC3 (centres unmarked) [Example 170]    Not fulfilled

Please state whether Ki is below 2 nM for Cc1cc(S(=O)(=O)c2ccc3sccc3c2)cc2c3c(oc12)CCNC3 [Example 204]
Fulfilled

Another: COCCN1CCc2oc3c(Cl)cc(S(=O)(=O)c4ccccc4)cc3c2C1 [Example 149]
Fulfilled

How about this molecule: C=C(C)c1cccc(S(=O)(=O)c2cc(Cl)c3oc4c(c3c2)CNCC4)c1 [Example 157]
Fulfilled
